# assayExplanation: qHTS assay for re-activators of p53 using a Luc reporter; further: nearly all actives have a fitted effect of over 45% in size
# experimentalConditions: H1299 p53-A138V BP100-luciferase reporter, luminescence, 24 h; series mostly up to 92.2 µM
Screen size: about 320,000 compounds; about 200 (0.062%) were called active. Another 6% or so got no clear call; they are omitted. The call rests on the fitted dose curve; in most records, active means well fitted activation curve with a large enough effect; inconclusive means small, poorly fitted or top-dose-only effect; inactive means no such curve, though single readings can be large or run the other way. This excerpt belongs to a sample that is enriched for actives.
Your response should consist of one outcome taken from 1 (yes) = active, 0 (no) = inactive

Solved entries (count: 5):
> print(dat)
                                   compound  labelvalue
1  CC(C)N(C(=O)[C@H]1C[C@H](CC(=O)NCCC2=CCCCC2)C(=O)N2CCc3c([nH]c4cc(CCC(=O)N(C)C)ccc34)[C@]12C)C(C)C      0 (no)
2  CN(C(=O)c1cccc(NC(=O)Cc2cccc([N+](=O)[O-])c2)c1)C1CCCCC1      0 (no)
3  CC[C@]1(C(=O)OC)[C@H]2C(=O)N(Cc3ccccc3)C(=O)[C@H]2[C@H]2CN=C(SCc3ccccc3)N21      0 (no)
4  CC[C@]12c3[nH]c4ccc(OC)cc4c3CCN1C(=O)C(CC(=O)NCCN1CCOCC1)C[C@@H]2C(=O)N1CCN(C(=O)C2CC2)CC1 (some centres undefined)      0 (no)
5  COc1cccc(-c2sc3ccc(OC)cc3c2-c2ccc(OCCN3CCCCC3)cc2)c1      0 (no)

Continue with the compound presented below.
Give the logged outcome of this assay for the following compound: "C=CCC[C@@H](Cc1ccc(F)cc1)C(=O)O[C@H](CNC(=O)[C@H](CC=C)CC(=O)N(CCO)Cc1ccccc1)c1ccccc1" 0 (no)

====

# assayExplanation: qHTS assay for re-activators of p53 using a Luc reporter; further: nearly all actives have a fitted effect of over 45% in size
# experimentalConditions: H1299 p53-A138V BP100-luciferase reporter, luminescence, 24 h; series mostly up to 92.2 µM
Among all 320,000 compounds or so, about 200 (0.062%) were called active. About 6% were inconclusive and are not listed. The call rests on the fitted dose curve; in most records, active means well fitted activation curve with a large enough effect; inconclusive means small, poorly fitted or top-dose-only effect; inactive means no such curve, though single readings can be large or run the other way. The entries come from a sample that favours actives as a whole.
Your response should consist of one outcome taken from YES for active, NO for inactive

Solved entries (count: 4):
> print(dat)
                          structureassmiles  labelvalue
1         Cc1cccc(-c2noc(-c3ccc(F)cc3)n2)c1         YES
2  C[C@@H]1CN([C@H](C)CO)C(=O)c2cc(NC(=O)NC3CCCCC3)ccc2O[C@H]1CN(C)S(C)(=O)=O          NO
3  COc1ccccc1-c1nnc2n1N=C(c1ccc(OC(F)F)c(OCC3CC3)c1)CS2          NO
4  CNC[C@@H]1Oc2c(NS(C)(=O)=O)cccc2C(=O)N([C@@H](C)CO)C[C@H]1C          NO

Continue with the compound presented below.
Give the logged outcome of this assay for the following compound: "CCCc1cc(=O)[nH]c(SCC(=O)Nc2ccc(C(=O)Nc3ccccc3OC)cc2)n1" NO

====

# assayExplanation: qHTS assay for re-activators of p53 using a Luc reporter; further: nearly all actives have a fitted effect of over 45% in size
# experimentalConditions: H1299 p53-A138V BP100-luciferase reporter, luminescence, 24 h; series mostly up to 92.2 µM
The whole screen tested about 320,000 compounds, of which about 200 (0.062%) were called active. Not shown: some 6% with an inconclusive outcome. Calls come from the whole dose curve; as a rule, active = well fitted activation curve with a large enough effect; inconclusive = small, poorly fitted or top-dose-only effect; inactive = no such curve, though single readings can be large or run the other way. This is one part of a sample in which actives are shown more often than they occur.
Your response should consist of one outcome taken from yes = active, no = inactive

compound	labelValue
CC(C)(C)OC(=O)C[C@H]1C/C=C\C[C@@H](CC(=O)N[C@H](CO)Cc2ccccc2)C(=O)NC[C@@H](c2ccccc2)OC1=O	no
Cc1cc(N)n2nc(-c3ccc(C(C)(C)C)cc3)cc2n1	yes
CC(C)N(C(=O)[C@H]1C[C@H](CC(=O)NC(C)(C)C)C(=O)N2CCc3c([nH]c4ccc(Cl)cc34)[C@]12C)C(C)C	no

Give the logged outcome of this assay for the following compound: "CN(C(=O)c1cccc(NC(=O)Cc2ccc([N+](=O)[O-])cc2)c1)C1CCC1" no

Give the logged outcome of this assay for the following compound: "COCCN(CCOC)S(=O)(=O)NC[C@H]1O[C@@H](n2cnc3c(N)ncnc32)[C@H](O)[C@@H]1O" no

Give the logged outcome of this assay for the following compound: "N#CCCN(C(=O)COC(=O)c1ccc2c(c1)OCCO2)c1ccccc1" no

Give the logged outcome of this assay for the following compound: CC1O[C@H](OC2C(COC3OC(CO)C(O)[C@H](O)C3O)OC(OC3CC[C@]4(C)C(CC[C@@]5(C)[C@@H]4C=C[C@]46OC[C@@]7(CCC(C)(C)C[C@H]74)C(O)C[C@@]56C)C3(C)C)C(O)C2O)C(O)C(O)C1O (stereo partly drawn) no

Give the logged outcome of this assay for the following compound: "O=C1c2ccccc2[C@@H]2C[C@@H](O)[C@H](Nc3ccccc3Cl)CCN12" no

====

# assayExplanation: qHTS assay for re-activators of p53 using a Luc reporter; further: nearly all actives have a fitted effect of over 45% in size
# experimentalConditions: H1299 p53-A138V BP100-luciferase reporter, luminescence, 24 h; series mostly up to 92.2 µM
Hit rate of the full screen: of about 320,000 compounds, about 200 (0.062%) were called active. About 6% were inconclusive and are not listed. Calls follow the shape of the dose curve; as a rule, active = well fitted activation curve with a large enough effect; inconclusive = small, poorly fitted or top-dose-only effect; inactive = no such curve, though single readings can be large or run the other way. This excerpt belongs to a sample that is enriched for actives.
Your response should consist of one outcome taken from TRUE for active, FALSE for inactive

Solved entries (count: 8):
> print(dat)
                                   molecule  labelvalue
1  Nc1ncnc2c1ncn2[C@@H]1O[C@H](CNS(=O)(=O)c2ccc(-c3ccno3)s2)[C@@H](O)[C@H]1O       FALSE
2  CC(=O)c1ccc(NC(=O)CSc2nc3ccccc3c(=O)n2CCCN2CCOCC2)cc1       FALSE
3     Cc1nn(-c2ccccc2)c(Cl)c1C(=O)Nc1ccccc1       FALSE
4  COc1cc(S(=O)(=O)N2CCN(C(=O)C3CC3)CC2)ccc1NC(C)=O       FALSE
5          CC1CCN(C(=O)CCNC(=O)c2ccccc2)CC1       FALSE
6  CCCCNc1c(-c2ccc(OC)c(Sc3ccc(OC)cc3)c2)nc2ccc(Cl)cn12       FALSE
7  COc1ccccc1N(CCOc1ccccc1)S(=O)(=O)c1ccccc1       FALSE
8  COc1ccc2nc3n(c(=O)c2c1)-c1ccc(Cl)cc1C(=O)NC3Cc1ccccc1 (centres undefined)       FALSE

Give the logged outcome of this assay for the following molecule: "C=CCC[C@H](Cc1ccc(F)cc1)C(=O)OC[C@@H](Cc1c[nH]c2ccccc12)NC(=O)[C@H](CC=C)CC(=O)N[C@H](CO)Cc1ccccc1" FALSE

====

# assayExplanation: qHTS assay for re-activators of p53 using a Luc reporter; further: nearly all actives have a fitted effect of over 45% in size
# experimentalConditions: H1299 p53-A138V BP100-luciferase reporter, luminescence, 24 h; series mostly up to 92.2 µM
The whole screen tested about 320,000 compounds, of which about 200 (0.062%) were called active. About 6% were inconclusive and are not listed. Calls follow the shape of the dose curve; as a rule, active = well fitted activation curve with a large enough effect; inconclusive = small, poorly fitted or top-dose-only effect; inactive = no such curve, though single readings can be large or run the other way. The entries come from a sample that favours actives as a whole.
Your response should consist of one outcome taken from active, inactive

Solved entries (count: 2):
> print(dat)
                                   molecule  labelvalue
1       O=C(COC(=O)CSc1ccccc1)Nc1ccc(F)cc1F    inactive
2  CC(=O)Nc1ccc(S(=O)(=O)Nc2ccc(N3CCCCC3)cc2)cc1    inactive

Give the logged outcome of this assay for the following molecule: "Cc1cccc(-c2noc(CCC(=O)NC3CCCC3)n2)c1" inactive

Give the logged outcome of this assay for the following molecule: "O=C(CSc1ncn[nH]1)Nc1ccc(Br)cc1Br" inactive

Give the logged outcome of this assay for the following molecule: "COc1cccc(/C(C)=N/Nc2ncc(Cl)cc2Cl)c1" active

====

# assayExplanation: qHTS assay for re-activators of p53 using a Luc reporter; further: nearly all actives have a fitted effect of over 45% in size
# experimentalConditions: H1299 p53-A138V BP100-luciferase reporter, luminescence, 24 h; series mostly up to 92.2 µM
Out of some 320,000 compounds screened, about 200 (0.062%) were called active. Not shown: some 6% with an inconclusive outcome. The call rests on the fitted dose curve; in most records, active means well fitted activation curve with a large enough effect; inconclusive means small, poorly fitted or top-dose-only effect; inactive means no such curve, though single readings can be large or run the other way. Many of the other results were omitted from the sample, so actives are more common in it than they were.
Your response should consist of one outcome taken from 1 (yes) = active, 0 (no) = inactive

Solved entries (count: 3):
> print(dat)
                                   molecule  labelvalue
1     Cc1c(Cl)cnc(NC(=O)COC(=O)C2CCCC2)c1Cl      0 (no)
2  COc1ccc2nc3n(c(=O)c2c1)-c1cc(C)ccc1C(=O)NC3Cc1ccc(O)cc1 (stereo not given)      0 (no)
3             Cc1ccc(C(=O)NCC(=O)NC2CC2)cc1      0 (no)

Give the logged outcome of this assay for the following molecule: "COc1cc(NC(=O)c2[nH]cnc2C(N)=O)cc(C(=O)Nc2cccc(C(F)(F)F)c2)c1" 0 (no)

Give the logged outcome of this assay for the following molecule: "CN(C(=O)c1cccc(NC(=O)C2CCN(C(=O)OC(C)(C)C)CC2)c1)C1CCC1" 0 (no)

Give the logged outcome of this assay for the following molecule: CC1CCCN(c2ccc(C(=O)NCCc3ccccc3)cn2)C1 (stereo not given) 1 (yes)

Give the logged outcome of this assay for the following molecule: "C[C@@H]1CN([C@@H](C)CO)C(=O)c2cccc(NS(=O)(=O)c3ccc(F)cc3)c2O[C@H]1CN(C)C(=O)NC1CCCCC1" 0 (no)

Give the logged outcome of this assay for the following molecule: "CC(C)(C)OC(=O)C[C@@H]1C/C=C\C[C@@H](CC(=O)N[C@@H](CO)Cc2ccccc2)C(=O)N2CCC[C@H]2COC1=O" 0 (no)

Give the logged outcome of this assay for the following molecule: CCOC(=O)C1=C(C)N(C[C@@H]2CC[C@@H](Cc3ccc(-c4ccccc4)cc3)O2)C(=O)NC1c1ccc([N+](=O)[O-])cc1 (stereo not given in full) 0 (no)

Give the logged outcome of this assay for the following molecule: COc1cc(C2CC(=O)Oc3cc(OC)c(OC)c(OC)c32)cc(OC)c1OC (stereo not given) 0 (no)

Give the logged outcome of this assay for the following molecule: "Cc1nn(-c2ccccc2)c(Cl)c1/C=C/C(=O)c1ccc(O)cc1" 1 (yes)

Give the logged outcome of this assay for the following molecule: "CCOC(=O)[C@H]1[C@H]2COc3ccccc3[C@@H]2N2C(=O)CN(Cc3ccccc3)C(=O)[C@@]12C" 0 (no)

Every entry's value here was drawn from PubChem BioAssay AID504706.
